Recorded values, source PubChem BioAssay.

# System: Human papillomavirus type 1a E7 protein (residues 1-88)
# procedure-details: HPV1a E7 small-molecule binders, primary screen, biochemical, small-molecule microarray, residues 1-88, 635 nm (AID 1129)
# condition-info: small-molecule microarray binding, fluorescence 635 nm; higher = more signal
Label met for high-side composite z-score (at or above 0.6) and not met for low-side composite z-score (below it).

compound	qualitative-label
O=C1C2C=CC(C(O)C3CC=CCC3)N(Nc3ccccc3)C2C(=O)N1c1ccccc1 (stereo not drawn)	met
C=CC[C@@H](OC(=O)Nc1ccc(SC)cc1)c1ccc(O)c(F)c1	not met
CC1=C2[C@@H](CCc3ccccc3)OB(O)C[C@@H]2[C@@H]2C(=O)N(Cc3ccccc3)C(=O)[C@@H]2C1	not met
CCCN1C(=O)[C@]2(Cc3ccccc31)N=C(c1ccc(OCCCO)cc1)O[C@@H]2c1ccccc1	met
CO[C@H]1O[C@H](CO)[C@@H](OC(=O)Nc2ccc3c(c2)OCO3)[C@H](OC(=O)Nc2ccc3c(c2)OCO3)[C@@H]1OC(=O)Nc1ccc2c(c1)OCO2	met
CC(CO)N1C(=O)[C@@H]2[C@H]3C(=O)OCC=C[C@H]3OC23C=CCN(Cn2nnc4ccccc42)C(=O)[C@@H]13 (stereo partly drawn)	not met
[N-]=[N+]=Nc1ccccc1C[C@]1(C(=O)N2CCOCC2)COC(c2ccc(OCCCO)cc2)=N1	met
CCC1=C2CN(Cc3ccccc3)[C@@H](C(=O)Cc3ccccc3)C2C=CCC1 (stereo partly drawn)	not met
